Reference for the values: ChEMBL document CHEMBL1130987

Target: Matrix metalloproteinase-9 (Homo sapiens)
Sequence (P14780 whole entry): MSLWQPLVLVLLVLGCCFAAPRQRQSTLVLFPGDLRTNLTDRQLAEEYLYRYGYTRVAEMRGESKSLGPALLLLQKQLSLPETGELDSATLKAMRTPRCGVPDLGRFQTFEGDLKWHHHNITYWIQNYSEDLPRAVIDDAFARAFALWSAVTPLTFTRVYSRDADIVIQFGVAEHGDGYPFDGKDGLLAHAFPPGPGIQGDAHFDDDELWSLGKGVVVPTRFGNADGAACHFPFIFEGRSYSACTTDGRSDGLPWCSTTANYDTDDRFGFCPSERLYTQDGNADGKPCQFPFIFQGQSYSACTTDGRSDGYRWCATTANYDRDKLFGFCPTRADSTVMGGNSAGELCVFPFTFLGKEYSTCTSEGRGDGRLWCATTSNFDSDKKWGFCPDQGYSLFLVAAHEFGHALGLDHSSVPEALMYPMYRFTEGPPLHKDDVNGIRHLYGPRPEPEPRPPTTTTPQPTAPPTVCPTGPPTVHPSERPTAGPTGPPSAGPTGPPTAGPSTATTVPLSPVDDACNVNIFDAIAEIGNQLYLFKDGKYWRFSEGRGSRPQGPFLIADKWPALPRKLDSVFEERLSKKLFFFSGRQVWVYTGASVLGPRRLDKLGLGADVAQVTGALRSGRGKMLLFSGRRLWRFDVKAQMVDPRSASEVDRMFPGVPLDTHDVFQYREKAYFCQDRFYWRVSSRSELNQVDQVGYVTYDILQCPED
pIC50: −log10 of the molar value.
measure name: pIC50

P. CCCCCCC[C@H](C[C@@H](O)CS)C(=O)N[C@H](C(=O)NC)C(C)(C)C
Q. CCCCCCC[C@H](CC(=O)CS)C(=O)N[C@@H](CC(C)C)C(=O)NC(=O)C(CC(C)C)NCC (stereo partly specified)
R. CNC(=O)[C@@H](NC(=O)[C@H](CC(C)C)C[C@@H](O)CS)C(C)(C)C
S. CCCCCCC[C@H](CC(=O)CS)C(=O)N[C@H](C(=O)NC)C(C)(C)C
**Q:** Ranking field: pIC50; order: falling. Write out the labels following the order that was asked for.
**A:** S, P, Q, R
(S: 9.85, P: 7.92, Q: 7.70, R: 6.60)

a. CNC(=O)[C@@H](NC(=O)[C@@H](CC(=O)CS)CC(C)C)C(C)(C)C
b. CCCCCCC[C@H](C[C@H](O)CS)C(=O)N[C@@H](CC(C)C)C(=O)NC(=O)C(CC(C)C)NCC (stereo partly specified)
**Q:** I'm curious whether a or b has the smaller pIC50 number. Which is it? Please identify the chosen entry by its label.
**A:** b
